# ASSAYED SYSTEM: ΔF508-CFTR (Homo sapiens, UniProt P13569, DEL508-508)
# Sequence (P13569 with tags, fused parts or gaps DEL508-508): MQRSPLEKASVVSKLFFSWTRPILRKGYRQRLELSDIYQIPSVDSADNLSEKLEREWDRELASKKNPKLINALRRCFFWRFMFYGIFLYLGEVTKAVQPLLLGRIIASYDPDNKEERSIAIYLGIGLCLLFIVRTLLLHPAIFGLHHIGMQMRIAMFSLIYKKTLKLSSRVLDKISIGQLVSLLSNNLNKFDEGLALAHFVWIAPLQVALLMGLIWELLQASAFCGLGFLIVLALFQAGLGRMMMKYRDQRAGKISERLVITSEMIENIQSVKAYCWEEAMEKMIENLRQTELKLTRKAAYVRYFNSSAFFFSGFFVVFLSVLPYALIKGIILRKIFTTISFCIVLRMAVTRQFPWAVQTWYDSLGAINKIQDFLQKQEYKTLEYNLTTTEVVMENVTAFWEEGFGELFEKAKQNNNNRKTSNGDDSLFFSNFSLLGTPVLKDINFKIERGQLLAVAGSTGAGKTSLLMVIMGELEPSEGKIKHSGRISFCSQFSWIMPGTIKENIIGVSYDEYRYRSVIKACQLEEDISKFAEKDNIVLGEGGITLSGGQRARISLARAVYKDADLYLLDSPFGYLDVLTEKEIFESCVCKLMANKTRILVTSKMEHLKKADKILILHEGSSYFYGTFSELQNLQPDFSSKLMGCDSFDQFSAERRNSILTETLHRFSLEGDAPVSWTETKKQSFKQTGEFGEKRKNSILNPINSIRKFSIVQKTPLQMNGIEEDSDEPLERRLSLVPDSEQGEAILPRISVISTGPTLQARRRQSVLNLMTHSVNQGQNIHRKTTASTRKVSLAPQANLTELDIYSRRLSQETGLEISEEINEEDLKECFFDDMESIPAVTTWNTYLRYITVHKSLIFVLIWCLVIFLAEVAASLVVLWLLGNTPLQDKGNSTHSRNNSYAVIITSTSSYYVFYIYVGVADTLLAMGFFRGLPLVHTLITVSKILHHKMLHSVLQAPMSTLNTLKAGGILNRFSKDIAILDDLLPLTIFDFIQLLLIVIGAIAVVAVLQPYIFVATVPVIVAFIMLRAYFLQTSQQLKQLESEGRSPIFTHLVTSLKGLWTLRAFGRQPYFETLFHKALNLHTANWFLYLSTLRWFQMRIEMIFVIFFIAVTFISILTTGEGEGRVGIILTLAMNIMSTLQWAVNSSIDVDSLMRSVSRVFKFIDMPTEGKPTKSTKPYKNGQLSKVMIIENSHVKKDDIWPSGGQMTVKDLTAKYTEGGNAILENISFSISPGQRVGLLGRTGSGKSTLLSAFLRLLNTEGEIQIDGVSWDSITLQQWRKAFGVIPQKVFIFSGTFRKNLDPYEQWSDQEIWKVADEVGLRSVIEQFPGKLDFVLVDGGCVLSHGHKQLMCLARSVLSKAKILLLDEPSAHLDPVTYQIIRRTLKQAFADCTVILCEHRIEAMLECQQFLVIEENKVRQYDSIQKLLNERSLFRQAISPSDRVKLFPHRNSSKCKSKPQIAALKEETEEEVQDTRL
# METHOD SUMMARY: Membrane potential optical (FRET/VIPR) assay, identification of potentiator compounds
# CONDITION SUMMARY: Table 3; assay not given
RECORDED ENDPOINT: EC50

1. O=C(Nc1cccc(S(=O)(=O)N2CCCCC2)c1)c1c[nH]c2ccccc2c1=O ... 25 to 60 µM
2. Cc1cccc2[nH]cc(C(=O)Nc3ccc(N4CCC(C)(C)C4)cc3C(F)(F)F)c(=O)c12 ... < 10 µM
3. O=C(Nc1cc(O)c(Cl)cc1F)c1c[nH]c2ccccc2c1=O ... < 10 µM
4. CCOc1cc(NC(=O)c2c[nH]c3ccccc3c2=O)c(OCC)cc1NC(=O)c1ccccc1 ... 25 to 60 µM
5. NS(=O)(=O)c1ccc(NC(=O)c2c[nH]c3ccccc3c2=O)cc1 ... 25 to 60 µM
6. CCOC(=O)NCC(C)(C)c1ccc(NC(=O)c2c[nH]c3ccccc3c2=O)cc1 ... < 10 µM
7. CCOC(=O)C(C)(C)c1ccc(NC(=O)c2c[nH]c3ccccc3c2=O)cc1 ... < 10 µM
8. O=C(Nc1cccc(S(=O)(=O)N2CCCC2)c1)c1c[nH]c2ccccc2c1=O ... 25 to 60 µM

Measured EC50 of `CC(=O)N1CCC2(CCN(C(=O)OC(C)(C)C)CC2)c2ccc(NC(=O)c3c[nH]c4ccccc4c3=O)cc21` : 10 to 25 µM

For reference, reported EC50 for `Cc1cccc2[nH]cc(C(=O)Nc3ccc(N4CCC[C@H]4C)cc3C(F)(F)F)c(=O)c12` stands at < 10 µM

Reported EC50 of `CSc1nc2ccccc2c(O)c1C(=O)Nc1ccc2cc[nH]c2c1` : 25 to 60 µM

Reported EC50 of `CC(C)(C)c1cc(F)c(NC(=O)c2c[nH]c3c(C(F)(F)F)cccc3c2=O)cc1O` : < 10 µM
